System: MCF7 breast
assaySummary: NCI-60 one-dose screen, 48 h
recordedConditions: 10 µM unless noted
The panel holds about 83,000 compounds, 20% with a hit somewhere; the sample as a whole holds those more often. The source made the active and inactive calls. Rule for the calls: active = growth percent below 10; inactive = the rest.
Result category, one only: active, inactive

(Q) Please indicate how the test categorized COc1ccc(/C(C)=C(\c2ccc(OCCN3CCOCC3)cc2)c2ccc(OC(=O)C3CCCCC3)cc2)cc1 .
(A) inactive

(Q) Please indicate how the test categorized C=C(CNCCc1ccc(O)cc1)[C@@H]1CC[C@]2(CO)CC[C@]3(C)[C@H](CC[C@@H]4[C@@]5(C)CCC(NCCc6ccc(O)cc6)C(C)(C)[C@@H]5CC[C@]43C)[C@@H]12 (some centres undefined) .
(A) active

(Q) Could you kindly confirm the outcome this assay logged for CCOC(=O)c1nnn(Cc2cc(=O)oc3c2ccc2ccccc23)c1C ?
(A) inactive

(Q) Could you please tell me the result logged for C#CCn1cnc2cnc(Nc3cccc(NC(=O)CCl)c3)nc21 in this assay?
(A) active

(Q) // outcome(item) with item = COc1cc(-c2nn(-c3cccc(NC(=O)CCN4CCN(C)CC4)c3)cc2-c2ccncc2)ccc1Cl
(A) inactive

(Q) Query: recorded result category for S=c1nc(CS)[nH]c2ccccc12 in this test
(A) inactive

(Q) Hi, sorry to bother you, what did the test record for Cc1ccc(Nc2nc(-c3cc(O)c(C)c(C)c3O)cs2)cc1 ?
(A) inactive

(Q) Given Cc1cccc(Cc2cnc(NC(=O)CCCOc3ccc(Cl)cc3)s2)c1 , state the outcome it received in this test.
(A) inactive

(Q) Fill in: this test's call for O=C(CC1(O)C(=O)Nc2ccc(Br)cc21)c1ccc(Cl)cc1 (centres undefined) is ___
(A) inactive

---

System: CCRF-CEM leukemia
assaySummary: NCI-60 one-dose screen, 48 h
recordedConditions: 10 µM unless noted
The panel holds about 83,000 compounds, 20% with a hit somewhere; the sample as a whole holds those more often. Activity calls are given as the source filed them. Rule for the calls: active = growth percent below 10; inactive = the rest.
Pick from active, inactive when you respond.

(Q) Query: recorded result category for N=C(N)c1ccc(-c2ccc(-c3ccc(F)cc3)s2)nc1 in this test
(A) inactive

(Q) Please share the test call associated with CC[C@@H]1NC(=O)[C@H]([C@H](O)[C@H](C)C/C=C/c2ccc(CN3C(=O)C(C)=C(C)C3=O)cc2)N(C)C(=O)[C@H](C(C)C)N(C)C(=O)[C@H](CC(C)C)N(C)C(=O)[C@H](CC(C)C)N(C)C(=O)[C@@H](C)NC(=O)[C@H](C)NC(=O)[C@H](CC(C)C)N(C)C(=O)[C@H](C(C)C)NC(=O)[C@H](CC(C)C)N(C)C(=O)CN(C)C1=O .
(A) inactive

(Q) I'd appreciate the recorded outcome for CCOC(=O)c1ccc(Nc2ncnc3c2cnn3-c2cccc(F)c2)cc1 from this test.
(A) inactive

(Q) Name the outcome recorded for COc1cc2cc(NCc3ccncc3)nc(C)c2cc1OC in the assay.
(A) inactive

(Q) So what was the verdict on O=C(N=Nc1c(O)[nH]c2ccccc12)Nc1ccc(Br)cc1 in this test?
(A) active

(Q) Please let me know the test result on file for O=C1Nc2ccccc2/C1=C/c1cccn1CCCCCn1c2ccccc2c(=O)c2ccccc21 .
(A) inactive

---

Test system: SR leukemia
assaySummary: NCI-60 one-dose screen, 48 h
recordedConditions: 100 µM
The panel holds about 83,000 compounds, 20% with a hit somewhere; the sample as a whole holds those more often. Calls of active or inactive are those of the source. Rule for the calls: active = growth percent below 10; inactive = the rest.
Can you answer with just one of these options? true (1) = active, false (0) = inactive

(Q) Hey, what did the test say about O=C(/C=C/c1cccc(Oc2ccc(Cl)cc2)c1)c1ccccc1 ?
(A) true (1)

(Q) Just curious, what result did CC(=O)/C=C/c1ccc(N(CCO)Cc2ccc(C(C)(C)C)cc2)cc1 get here?
(A) true (1)

(Q) Entry COc1ccc(C(=O)/C=C/c2ccc(OCc3ccc(Cl)cc3)cc2)cc1OC : call = ?
(A) false (0)

(Q) Called result for CC(=O)/C=C/c1ccc(N(C)Cc2ccc(C(C)(C)C)cc2)cc1
(A) true (1)

(Q) Dear colleague, could you share the recorded outcome for COc1ccc(C(=O)/C=C/c2ccc(OCc3cccc(C(F)(F)F)c3)c(OC)c2)cc1OC when you have a moment?
(A) true (1)
